TARGET_ENTITY: Norepinephrine transporter (Rattus norvegicus, UniProt Q9JIA2)
pKi: −log10 of the molar value. Where a name gives a salt, the structure may show the parent alone.
Classification field: Criterion met = pKi at or over 7; Criterion not met = pKi under 7.

For orientation, consider the following solved cases.
[
  {
    "MOLECULE": "NCCc1ccc(O)c(O)c1",
    "TARGET_ENTITY": "Norepinephrine transporter (Rattus norvegicus, UniProt Q9JIA2)",
    "ASSIGNED_LABEL": "Criterion not met"
  },
  {
    "MOLECULE": "COc1ccc2c(c1)CN(C)CC2c1ccc(Cl)c(Cl)c1 (configuration not stated)",
    "TARGET_ENTITY": "Norepinephrine transporter (Rattus norvegicus, UniProt Q9JIA2)",
    "ASSIGNED_LABEL": "Criterion met"
  },
  {
    "MOLECULE": "O[C@]1(c2ccc(Cl)cc2)c2ccccc2C2=NCCN21",
    "TARGET_ENTITY": "Norepinephrine transporter (Rattus norvegicus, UniProt Q9JIA2)",
    "ASSIGNED_LABEL": "Criterion met"
  }
]

Task: Hi, just wondering whether CC(NC(C)(C)C)C(=O)c1cccc(Cl)c1 (configuration not stated) [BUPROPION HYDROCHLORIDE] shows pKi of 7 or higher.
Output: Criterion not met

Task: How about this molecule: NCC(O)c1ccc(O)c(O)c1 (stereo not drawn) [Noradrenaline,(+)]
Output: Criterion not met

Task: How about this molecule: NCCc1c[nH]c2ccc(O)cc12 [[3H]-5-HT]
Output: Criterion not met

====

TARGET_ENTITY: Alpha-1A adrenergic receptor (Rattus norvegicus)
Sequence (P43140 whole entry): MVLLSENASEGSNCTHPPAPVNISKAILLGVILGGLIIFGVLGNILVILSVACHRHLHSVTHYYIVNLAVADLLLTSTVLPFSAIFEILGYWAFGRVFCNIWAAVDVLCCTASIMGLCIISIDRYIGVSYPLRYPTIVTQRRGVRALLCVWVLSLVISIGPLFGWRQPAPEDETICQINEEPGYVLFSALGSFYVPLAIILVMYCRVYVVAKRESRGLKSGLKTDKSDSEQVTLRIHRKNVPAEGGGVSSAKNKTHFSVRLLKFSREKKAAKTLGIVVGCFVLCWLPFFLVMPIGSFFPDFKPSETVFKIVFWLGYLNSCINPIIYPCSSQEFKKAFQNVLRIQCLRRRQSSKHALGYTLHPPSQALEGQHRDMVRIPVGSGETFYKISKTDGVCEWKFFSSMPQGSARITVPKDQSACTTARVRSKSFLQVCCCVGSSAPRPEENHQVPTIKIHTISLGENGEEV
pKi: −log10 of the molar value. Counter-ions that a name gives are not always drawn.
READOUT_KIND: pKi

Reference set, count: 2
[
  {
    "COMPOUND": "CN(C)CCCC1(c2ccc(F)cc2)OCc2cc(C#N)ccc21 (stereo not drawn) [CITALOPRAM HYDROBROMIDE]",
    "READOUT_KIND": "pKi",
    "VALUE": "< 5.00"
  },
  {
    "COMPOUND": "CC(NC(C)(C)C)C(=O)c1cccc(Cl)c1 (stereo not drawn) [BUPROPION HYDROCHLORIDE]",
    "READOUT_KIND": "pKi",
    "VALUE": "< 5.00"
  }
]

Now take the following compound into account.
Task: I would be grateful if you could share the reported pKi for `Fc1ccc(C(OCCN2CCN(CCCc3ccccc3)CC2)c2ccc(F)cc2)cc1` .
Output: 5.46

====

TARGET_ENTITY: 5-hydroxytryptamine receptor 2A (Rattus norvegicus, UniProt P14842)
Sequence (P14842 whole entry): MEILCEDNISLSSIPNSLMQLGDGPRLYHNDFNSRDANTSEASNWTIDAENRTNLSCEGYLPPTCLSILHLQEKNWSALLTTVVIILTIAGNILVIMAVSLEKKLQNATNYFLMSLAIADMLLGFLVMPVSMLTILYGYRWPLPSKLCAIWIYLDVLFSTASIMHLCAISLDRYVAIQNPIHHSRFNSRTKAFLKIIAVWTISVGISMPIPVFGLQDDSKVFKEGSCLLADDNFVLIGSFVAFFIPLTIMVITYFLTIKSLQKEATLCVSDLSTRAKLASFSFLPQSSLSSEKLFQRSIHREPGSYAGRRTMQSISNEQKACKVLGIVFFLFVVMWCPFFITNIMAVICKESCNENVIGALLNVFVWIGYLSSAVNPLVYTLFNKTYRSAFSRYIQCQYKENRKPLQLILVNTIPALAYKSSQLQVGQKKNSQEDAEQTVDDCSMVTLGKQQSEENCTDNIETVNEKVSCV
READOUT_KIND: pKi
// returns pKi (minus log10 of molar concentration), number only

Task: For the record `Fc1ccc(C(OCCN2CCN(CCCc3ccccc3)CC2)c2ccc(F)cc2)cc1` , what value of pKi is listed for 5-hydroxytryptamine receptor 2A (Rattus norvegicus, UniProt P14842)?
Output: 6.72

====

TARGET_ENTITY: Alpha-2C adrenergic receptor (Rattus norvegicus)
Sequence (P22086 whole entry): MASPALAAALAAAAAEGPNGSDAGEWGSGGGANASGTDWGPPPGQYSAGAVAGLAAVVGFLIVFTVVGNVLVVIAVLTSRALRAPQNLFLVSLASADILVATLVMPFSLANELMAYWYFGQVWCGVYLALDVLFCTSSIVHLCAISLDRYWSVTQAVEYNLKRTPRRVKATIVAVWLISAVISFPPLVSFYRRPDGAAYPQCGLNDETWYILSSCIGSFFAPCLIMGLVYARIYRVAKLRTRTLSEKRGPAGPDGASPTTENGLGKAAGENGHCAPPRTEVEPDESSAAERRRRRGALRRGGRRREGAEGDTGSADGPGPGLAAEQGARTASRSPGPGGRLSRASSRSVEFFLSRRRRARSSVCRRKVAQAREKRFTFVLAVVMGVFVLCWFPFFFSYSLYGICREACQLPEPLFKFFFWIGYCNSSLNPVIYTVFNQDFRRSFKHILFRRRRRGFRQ
READOUT_KIND: Ki (µM)
Answer with a number only, understood to be in µM.

[
  {
    "GIVEN_SMILES": "Fc1ccc(C(OCCN2CCN(CCCc3ccccc3)CC2)c2ccc(F)cc2)cc1",
    "MEASUREMENT_UNITS": "µM",
    "Ki": 7
  }
]

Now take the following compound into account.
Task: For the record `CN(C)CCCN1c2ccccc2CCc2ccccc21` , what value of Ki is listed for Alpha-2C adrenergic receptor (Rattus norvegicus)?
Output: 5.7

====

As a worked illustration, we turn to Ki data collected for D(1A) dopamine receptor (Rattus norvegicus).
Answer with a number only, understood to be in µM.

[
  {
    "GIVEN_SMILES": "Fc1ccc(C(OCCN2CCN(CCCc3ccccc3)CC2)c2ccc(F)cc2)cc1",
    "Ki [µM]": 1
  }
]

Now take the following molecule into account.
Task: For the record `CN(C)CCCN1c2ccccc2CCc2ccccc21` , what value of Ki is listed for D(1A) dopamine receptor (Rattus norvegicus)?
Output: 3
